Origin of measurements: ChEMBL document CHEMBL4373715

- assay.protocol: Stability in human plasma assessed as parent compound remaining at 1 mM measured immediately by LC-MS/MS analysis
- Type: ADME, cell-free
- applied.conditions: read-out: Stability
measurement.name: remaining at 0 h
Give the number first and the unit second.

Please give the measured remaining at 0 h for this compound: `Oc1ccc(-c2cc(-c3ccccc3Cl)nc3c2Cc2c(O)cccc2-3)cc1`
100%

* * *

- assay.protocol: Toxicity in male ICR mouse assessed as mortality at 50 mg/kg, iv administered as single dose measured daily for 7 days (reference value: 0%)
- Assay type: organism-based
- applied.conditions: in vivo
measurement.name: mortality at 168 h (%)
# output: bare number, implied unit %

Please give the measured mortality at 168 h for this compound: `Oc1ccc(-c2cc(-c3ccccc3Cl)nc3c2Cc2c(O)cccc2-3)cc1`
0

* * *

Catalogue of pIC50 values
- Tested on: DU-145
- assay.protocol: Antiproliferative activity against human DU145 cells measured after 72 hrs by EZ-Cytox assay
- Type: functional, cell-based
- applied.conditions: DU-145, 72 h
Schema: pIC50 number; meaning minus log10 of the concentration expressed in molar units.

Please give the measured pIC50 for this molecule: `Oc1cccc(-c2cc(-c3ccc(C(F)(F)F)cc3)nc3c2Cc2c(O)cccc2-3)c1`
5.30

* * *

- System: HeLa
- assay.protocol: Antiproliferative activity against human HeLa cells measured after 72 hrs by EZ-Cytox assay
- Type: functional, cell-based
measurement.name: pIC50
Schema: pIC50 number; meaning minus log10 of the concentration expressed in molar units.

Please review the entries below; each comes with its answer.
- Oc1ccc2c(c1)Cc1c(-c3ccccc3O)cc(-c3cccc(F)c3)nc1-2: 5.61
- Oc1ccc(-c2cc(-c3ccc(F)cc3)nc3c2Cc2ccc(O)cc2-3)cc1: 5.65
- Oc1ccc(-c2cc(-c3ccc(C(F)(F)F)cc3)nc3c2Cc2ccc(O)cc2-3)cc1: 5.26
- Oc1cccc(-c2cc(-c3ccc(F)cc3)nc3c2Cc2ccc(O)cc2-3)c1: 5.42
- Oc1ccccc1-c1cc(-c2ccc(F)cc2)nc2c1Cc1cccc(O)c1-2: 5.51

Then there is this compound:
Please give the measured pIC50 for this compound: `Oc1ccc2c(c1)Cc1c(-c3ccccc3O)cc(-c3cccc(Cl)c3)nc1-2`
5.57

* * *

- test.target: UniProtKB P11387
- assay.protocol: Inhibition of recombinant human topoisomerase 1-mediated relaxation of supercoiled pBR322 DNA at 100 uM measured after 30 mins by ethidium bromide staining based agarose gel electrophoresis relative to control
1 means recorded inhibition is 9% or above; -1 means it is below 9%.

Determine whether measured inhibition meets or exceeds 9% for `Oc1ccc2c(c1)Cc1c(-c3ccccc3O)cc(-c3ccccc3)nc1-2`
-1

* * *

- test.target: DNA topoisomerase 1 (Homo sapiens) (UniProt P11387)
- Sequence (P11387 whole entry): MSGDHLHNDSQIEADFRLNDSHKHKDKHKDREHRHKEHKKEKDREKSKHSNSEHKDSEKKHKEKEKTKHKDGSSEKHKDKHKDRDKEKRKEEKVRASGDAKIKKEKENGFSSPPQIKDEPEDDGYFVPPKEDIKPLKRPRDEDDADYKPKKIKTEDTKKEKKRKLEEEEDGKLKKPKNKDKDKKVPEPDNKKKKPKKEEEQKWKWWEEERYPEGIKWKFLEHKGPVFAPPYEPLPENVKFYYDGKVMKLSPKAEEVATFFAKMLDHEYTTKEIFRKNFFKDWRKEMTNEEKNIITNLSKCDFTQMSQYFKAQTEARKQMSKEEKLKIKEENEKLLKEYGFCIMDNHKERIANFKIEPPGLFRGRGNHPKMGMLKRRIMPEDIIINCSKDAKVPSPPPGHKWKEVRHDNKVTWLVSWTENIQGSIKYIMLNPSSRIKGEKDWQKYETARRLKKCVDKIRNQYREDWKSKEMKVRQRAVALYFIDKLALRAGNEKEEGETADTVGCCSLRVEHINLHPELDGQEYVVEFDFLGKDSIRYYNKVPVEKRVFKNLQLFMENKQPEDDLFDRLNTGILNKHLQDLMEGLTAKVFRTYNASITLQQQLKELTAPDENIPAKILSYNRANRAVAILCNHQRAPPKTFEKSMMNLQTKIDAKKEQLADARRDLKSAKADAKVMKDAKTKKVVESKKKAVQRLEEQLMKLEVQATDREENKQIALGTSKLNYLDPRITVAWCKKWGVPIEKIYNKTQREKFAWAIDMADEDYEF
- assay.protocol: Inhibition of recombinant human topoisomerase 1-mediated relaxation of supercoiled pBR322 DNA at 20 uM measured after 30 mins by ethidium bromide staining based agarose gel electrophoresis relative to control
Catalogue of inhibition values
# output: bare number, implied unit %

• Oc1cccc(-c2cc(-c3ccccc3C(F)(F)F)nc3c2Cc2c(O)cccc2-3)c1 = 0
• Oc1ccc2c(c1)-c1nc(-c3ccccc3O)cc(-c3ccccc3Cl)c1C2 = 14.8
• Oc1ccc(-c2cc(-c3ccccc3Cl)c3c(n2)-c2cccc(O)c2C3)cc1 = 0
• Oc1ccc2c(c1)Cc1c(-c3ccccc3Cl)cc(-c3ccccc3O)nc1-2 = 7.4
• Oc1ccc(-c2cc(-c3ccc(C(F)(F)F)cc3)nc3c2Cc2cc(O)ccc2-3)cc1 = 0
• Oc1ccc(-c2cc(-c3cccc(C(F)(F)F)c3)nc3c2Cc2cc(O)ccc2-3)cc1 = 0.3

Please give the measured inhibition for this molecule: `Oc1ccc(-c2cc(-c3ccc(C(F)(F)F)cc3)nc3c2Cc2c(O)cccc2-3)cc1`
0

Please give the measured inhibition for this molecule: `Oc1cccc(-c2cc(-c3ccccc3Cl)c3c(n2)-c2c(O)cccc2C3)c1`
0.2

Please give the measured inhibition for this molecule: `Oc1cccc(-c2cc(-c3ccccc3Cl)c3c(n2)-c2ccc(O)cc2C3)c1`
6.3

Please give the measured inhibition for this molecule: `Oc1cccc(-c2cc(-c3ccccc3Cl)c3c(n2)-c2cc(O)ccc2C3)c1`
6.3

Please give the measured inhibition for this molecule: `Oc1ccc(-c2cc(-c3ccc(C(F)(F)F)cc3)nc3c2Cc2ccc(O)cc2-3)cc1`
0

* * *

Catalogue of IC50 values
- Tested on: HeLa
- assay.protocol: Antiproliferative activity against human HeLa cells measured after 72 hrs by EZ-Cytox assay
- Format: functional, cell-based
# output: bare number, implied unit µM

Please review the entries below; each comes with its answer.
- Oc1ccc(-c2cc(-c3ccccc3Cl)c3c(n2)-c2cc(O)ccc2C3)cc1: 6.5
- Oc1ccccc1-c1cc(-c2ccc(Cl)cc2)nc2c1Cc1cccc(O)c1-2: 5.31
- Oc1ccc2c(c1)-c1nc(-c3ccccc3Cl)cc(-c3ccccc3O)c1C2: 6.71
- Oc1ccc2c(c1)-c1nc(-c3cccc(F)c3)cc(-c3ccccc3O)c1C2: 4.22
- Oc1ccc(-c2cc(-c3ccccc3)c3c(n2)-c2cccc(O)c2C3)cc1: 5.74

Please give the measured IC50 for this compound: `Oc1ccc2c(c1)Cc1c(-c3ccccc3O)cc(-c3ccccc3F)nc1-2`
4.94

Please give the measured IC50 for this compound: `Oc1ccccc1-c1cc(-c2ccccc2C(F)(F)F)nc2c1Cc1c(O)cccc1-2`
3.95

Please give the measured IC50 for this compound: `Oc1cccc(-c2cc(-c3ccccc3Cl)c3c(n2)-c2ccc(O)cc2C3)c1`
6.48

* * *

Catalogue of IC50 values
- Test system: DU-145
- assay.protocol: Antiproliferative activity against human DU145 cells measured after 72 hrs by EZ-Cytox assay
- Format: functional, cell-based
- applied.conditions: DU-145, 72 h

Please review the entries below; each comes with its answer.
- Oc1ccccc1-c1cc(-c2ccccc2)c2c(n1)-c1c(O)cccc1C2: 9.61 µM
- Oc1ccccc1-c1cc(-c2ccc(Cl)cc2)nc2c1Cc1cccc(O)c1-2: 0.55 µM
- Oc1ccc(-c2cc(-c3ccccc3C(F)(F)F)nc3c2Cc2cccc(O)c2-3)cc1: > 50 µM
- Oc1ccccc1-c1cc(-c2ccc(C(F)(F)F)cc2)nc2c1Cc1c(O)cccc1-2: 3.46 µM

Please give the measured IC50 for this compound: `Oc1ccc(-c2cc(-c3ccccc3)c3c(n2)-c2ccc(O)cc2C3)cc1`
0.71 µM

* * *

- System: DU-145
- assay.protocol: Antiproliferative activity against human DU145 cells measured after 72 hrs by EZ-Cytox assay
- Assay type: functional, cell-based
- applied.conditions: DU-145, 72 h
measurement.name: pIC50
Schema: pIC50 number; meaning minus log10 of the concentration expressed in molar units.

Please review the entries below; each comes with its answer.
* Oc1cccc(-c2cc(-c3ccccc3Cl)nc3c2Cc2c(O)cccc2-3)c1 | 6.04
* Oc1ccc2c(c1)Cc1c(-c3ccccc3O)cc(-c3cccc(C(F)(F)F)c3)nc1-2 | 5.76
* Oc1cccc(-c2cc(-c3cccc(C(F)(F)F)c3)nc3c2Cc2c(O)cccc2-3)c1 | 5.79
* Oc1ccc(-c2cc(-c3ccccc3Cl)c3c(n2)-c2c(O)cccc2C3)cc1 | 6.07
* Oc1cccc2c1-c1nc(-c3ccccc3)cc(-c3ccccc3)c1C2 | 5.85

Please give the measured pIC50 for this molecule: `Oc1ccc2c(c1)-c1nc(-c3ccc(C(F)(F)F)cc3)cc(-c3ccccc3O)c1C2`
5.55

Please give the measured pIC50 for this molecule: `Oc1ccc2c(c1)Cc1c(-c3ccccc3O)cc(-c3ccccc3F)nc1-2`
5.42

Please give the measured pIC50 for this molecule: `Oc1cccc(-c2cc(-c3ccccc3C(F)(F)F)nc3c2Cc2ccc(O)cc2-3)c1`
5.74

Please give the measured pIC50 for this molecule: `Oc1ccc(-c2cc(-c3ccc(C(F)(F)F)cc3)nc3c2Cc2c(O)cccc2-3)cc1`
5.68

Please give the measured pIC50 for this molecule: `Oc1cccc(-c2cc(-c3cccc(F)c3)nc3c2Cc2c(O)cccc2-3)c1`
5.63

Please give the measured pIC50 for this molecule: `Oc1cccc(-c2cc(-c3ccccc3C(F)(F)F)nc3c2Cc2cc(O)ccc2-3)c1`
5.60

Please give the measured pIC50 for this molecule: `Oc1ccc(-c2cc(-c3ccc(F)cc3)nc3c2Cc2ccc(O)cc2-3)cc1`
5.63

Please give the measured pIC50 for this molecule: `Oc1cccc(-c2cc(-c3ccccc3F)nc3c2Cc2cc(O)ccc2-3)c1`
5.79

Please give the measured pIC50 for this molecule: `Oc1ccc(-c2cc(-c3cccc(Cl)c3)c3c(n2)-c2cccc(O)c2C3)cc1`
5.79

Please give the measured pIC50 for this molecule: `Oc1ccc2c(c1)-c1nc(-c3ccccc3F)cc(-c3ccccc3O)c1C2`
5.39

Please give the measured pIC50 for this molecule: `Oc1ccc2c(c1)-c1nc(-c3cccc(C(F)(F)F)c3)cc(-c3ccccc3O)c1C2`
5.79

Please give the measured pIC50 for this molecule: `Oc1cccc(-c2cc(-c3cccc(Cl)c3)nc3c2Cc2c(O)cccc2-3)c1`
5.83

Please give the measured pIC50 for this molecule: `Oc1cccc(-c2cc(-c3ccc(F)cc3)nc3c2Cc2c(O)cccc2-3)c1`
6.25
